Would you mind telling me the reported IC50 of each entry?
- Tgt: Protein kinase C
- Procedure text: Protein kinase C assay (32P incorporation into Type III histone)
- Format: biochemical, rat
- Settings: rat brain protein kinase C; phosphatidylserine/diacylglycerol stimulated; read-out: Protein Kinase Inhibitory Activity IC50
Numbers only, in µM.

Below, 3 compounds whose answers are already recorded.
{"Compound": "CCCCCCCCCCC#Cc1cccc(C(O)C(NC(C)=O)C(=O)OCC)n1 (stereo not shown)", "Unit symbol": "µM", "Observed": 29}
{"Compound": "CCCCCCCCCCCCc1cccc(C(O)C(N)CO)n1 (stereo not shown)", "Unit symbol": "µM", "Observed": 8.5}
{"Compound": "CCCCCCCCCCc1cccc(C(O)C(N)CO)n1 (stereo not drawn) [erythro-2-amino-1-(6-decyl-2-pyridinyl)-1,3-dihydroxypropane]", "Unit symbol": "µM", "Observed": 48}

Now for another entry.
Provide value of IC50 for this record tested with Protein kinase C: CCCCCCCCCCCCC/C=C/[C@@H](O)[C@@H](N)CO [D-erythro-sphingosine, reference compound]
6.7

###

- Tested on: female Swiss Webster mice
- Procedure text: TPA-induced ear edema assay
- Assay type: in vivo
- Settings: 10 μg/ear topical, after about 5 hours
Would you mind telling me the reported Antiinflammatory Activity Percent Decrease in Ear Plug Weight at 10 μg/ear of each entry?
Please provide the amount together with its unit, number first.

Known Antiinflammatory Activity Percent Decrease in Ear Plug Weight at 10 μg/ear results, listed for orientation:
{"Compound": "CCCCCCCCCCC#Cc1cccc([C@@H](O)[C@H](CO)NC(C)=O)n1", "Observed": "59%"}
{"Compound": "CCCCCCCCCCCCC/C=C/[C@@H](O)[C@@H](N)CO [D-erythro-sphingosine, reference compound]", "Observed": "46%"}
{"Compound": "CCCCCCCCCCC#Cc1cccc(C(O)C(NC(C)=O)C(=O)OCC)n1 (stereo not drawn)", "Observed": "50%"}
{"Compound": "CCCCCCCCCCc1cccc(C(O)C(N)CO)n1 (stereo not drawn) [threo-2-amino-1-(6-decyl)-2-pyridinyl)-1,3-propanediol]", "Observed": "30%"}
{"Compound": "CCCCCCCCCCCCc1cccc(C(O)C(N)CO)n1 (stereo not drawn)", "Observed": "24%"}

The record that follows has no Antiinflammatory Activity Percent Decrease in Ear Plug Weight at 10 μg/ear shown yet.
Need Antiinflammatory Activity Percent Decrease in Ear Plug Weight at 10 μg/ear, item CCCCCCCCCCc1cccc(C(O)C(N)CO)n1 (stereo not drawn) [erythro-2-amino-1-(6-decyl-2-pyridinyl)-1,3-dihydroxypropane]
66%

# credit: patent US6500849B1
